# protocol.summary: Apparent permeability from apical to basolateral side of human Caco-2 cells after 21 days
measured.attribute: Papp A→B (×10⁻⁶ cm/s)

O=c1c(C2=CS(=O)(=O)c3ccccc3N2)c(O)c2cc(F)ccc2n1CCC1CC1
0.6
Cc1cc(Cn2c(=O)c(C3=CS(=O)(=O)c4ccccc4N3)c(O)c3cc(F)ccc32)ccc1F
0.5

###

# Test system: Hepatitis C virus
# protocol.summary: Inhibition of HCV 1b J4 NS5B Cdelta 21polymerase over expressed in Escherichia coli assessed as [alpha33P]UTP incorporation
# Set-up: species or system Hepatitis C virus subtype 1b
pIC50: −log10 of the molar value.
measured.attribute: pIC50

P = CC(C)CCn1c(=O)c(C2=NS(=O)(=O)c3ccccc3N2)c(O)c2ccccc21
Q = O=c1c(C2=Nc3ccccc3S(=O)(=O)N2)c(O)c2cc(F)ccc2n1CCC1CC1
Q) Hi! Which is lower in terms of pIC50, the first one P or the second one Q ? Indicate your choice by writing its label.
A) P

###

# protocol.summary: Apparent permeability across human Caco-2 cells after 7 days
# Assay type: ADME, cell-based
measured.attribute: Papp (×10⁻⁶ cm/s)

Cc1ccc2c(c1)c(O)c(C1=CS(=O)(=O)c3ccccc3N1)c(=O)n2CCC1CC1
9.4

A = O=c1c(C2=CS(=O)(=O)c3ccccc3N2)c(O)c2ccccc2n1Cc1ccc(F)cc1
B = O=c1c(C2=CS(=O)(=O)c3ccccc3N2)c(O)c2cc(F)ccc2n1CCC1CC1
Q) Hi! Which is lower in terms of Papp, the first one A or the second one B ? Indicate your choice by writing its label.
A) A

###

# Test system: Hepatitis C virus
# protocol.summary: Antiviral activity against HCV 1b replication in human 2209-23 cells assessed as [3H]thymidine incorporation into cellular DNA by scintillation proximity assay
# Assay type: functional, organism-based, Hepacivirus hominis
# test.settings: genotype 1b
measured.attribute: EC50 (nM)

CC(C)CCn1c(=O)c(C2=CS(=O)(=O)c3ccccc3N2)c(O)c2ccccc21
2500

I = O=c1c(C2=CS(=O)(=O)c3ccccc3N2)c(O)c2cc(F)ccc2n1Cc1ccc(F)cc1
II = O=S1(=O)N=C(c2nc(Cc3ccc(F)cc3)c3ccccc3c2O)c2ccccc21
III = O=c1c(C2=CS(=O)(=O)c3ccccc3N2)c(O)c2cc(Cl)ccc2n1CCC1CC1
Q) Rank ascending by EC50. A ranking is expressed here by listing the labels in the requested order.
A) II, I, III
(II: 440 nM, I: 700 nM, III: 1600 nM)

I = COc1ccc2c(c1)c(O)c(C1=CS(=O)(=O)c3ccccc3N1)c(=O)n2CCC1CC1
II = O=c1c(C2=CS(=O)(=O)c3ccccc3N2)c(O)c2cc(F)ccc2n1Cc1ccc(F)c(F)c1
III = O=c1c(C2=CS(=O)(=O)c3ccccc3N2)c(O)c2ccccc2n1Cc1ccccc1F
IV = Cc1ccc2c(c1)c(O)c(C1=CS(=O)(=O)c3ccccc3N1)c(=O)n2CCC1CC1
Q) Rank ascending by EC50. A ranking is expressed here by listing the labels in the requested order.
A) IV, II, I, III

a = O=c1c(C2=CS(=O)(=O)c3ccccc3N2)c(O)c2cc(F)ccc2n1CCC1CC1
b = CC(C)CCn1c(=O)c(C2=CS(=O)(=O)c3ccccc3N2)c(O)c2cc(F)cnc21
Q) Parameter check: reported EC50 is higher for which label, a or b ? Indicate your choice by writing its label.
A) b

a = Cc1ccc2c(c1)c(O)c(C1=CS(=O)(=O)c3ccccc3N1)c(=O)n2Cc1ccc(F)cc1
b = O=c1c(C2=Nc3ccccc3S(=O)(=O)N2)c(O)c2cc(F)ccc2n1CCC1CC1
Q) Parameter check: reported EC50 is higher for which label, a or b ? Indicate your choice by writing its label.
A) a
(a: 1500 nM, b: 260 nM)

P = O=S1(=O)C=C(c2nc(Cc3ccc(F)cc3)c3ccccc3c2O)Nc2ccccc21
Q = O=c1c(C2=CS(=O)(=O)c3ccccc3N2)c(O)c2ccccc2n1Cc1ccc(F)cc1
Q) Hi! Which is lower in terms of EC50, the first one P or the second one Q ? Indicate your choice by writing its label.
A) Q
